// provenance: ChEMBL document CHEMBL1124480

Consider the following compounds; for each one, report its Ratio.
Organism: Cavia porcellus
EXPERIMENTAL_PROTOCOL: Relative affinity for guinea pig membranes of pancreas and brain
// response body must contain only the number

Bench note: what Ratio did CCCC[C@H](NC(=O)[C@H](Cc1c[nH]c2ccccc12)NC(=O)C1CCCCNC(=O)[C@H](NC(=O)OC(C)(C)C)CCC(=O)N[C@H](Cc2ccc(O)cc2)C(=O)N[C@@H](CCCC)C(=O)N1)C(=O)N[C@@H](CC(=O)O)C(=O)N[C@H](Cc1ccccc1)C(N)=O (stereo in doubt) show?
402

Which Ratio value belongs to CCCC[C@H](NC(=O)[C@H](Cc1ccc(OS(=O)(=O)O)cc1)NC(=O)[C@H](CCC(=O)O)NC(=O)OC(C)(C)C)C(=O)NC(CCCCN)C(=O)N[C@@H](Cc1c[nH]c2ccccc12)C(=O)N[C@@H](CCCC)C(=O)N[C@@H](CC(=O)O)C(=O)N[C@@H](Cc1ccccc1)C(N)=O (stereo in doubt) ?
6

Consider the compound CCCC[C@H](NC(=O)[C@H](Cc1ccc(OS(=O)(=O)O)cc1)NC(=O)[C@@H](CCC(=O)O)NC(=O)OC(C)(C)C)C(=O)NC(CCCCN)C(=O)N[C@@H](Cc1c[nH]c2ccccc12)C(=O)N[C@@H](CCCC)C(=O)N[C@@H](CC(=O)O)C(=O)N[C@@H](Cc1ccccc1)C(N)=O (stereo in doubt) and give its measured Ratio.
5
